# Tested on: ATP;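 also: ATP exposure 15 min at 22 °C before imaging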
# TEST: switch fluorescence ratio, 500 uM ATP over buffer (Cy3 cluster intensity, sum of 5 cycles each) (fold (ratio)); higher = stronger signal-on switching upon ATP binding; sequences stand for … in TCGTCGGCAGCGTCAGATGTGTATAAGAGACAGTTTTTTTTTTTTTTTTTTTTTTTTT…TC
# EXPERIMENTAL_CONTEXT: aptamer strand: ATP DNA aptamer (quencher-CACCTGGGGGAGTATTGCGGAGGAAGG + anchor), 100 nM annealed; ATP concentration: 500 uM
ENDPOINT_LABEL: switch fluorescence ratio

1) CAGTTATTCG    0.977
2) GCACTGGGGC    1.01
3) GGGGGTCCTA    0.977
4) TGAAGGGGAG    1.01
5) AGAATTCCCT    1.01
6) ATAGATTGTT    1.39
7) GCTGTAAAGA    0.983
8) TACGGTTTTT    0.967
9) CGAGGGGCAC    0.997
10) TGTTGTAAAG    0.985
11) TTGCAAGGTT    1.01
12) CTTGTAAGAA    1.02
13) GTATTATTTT    0.979
14) GGGGAATGCG    1.01
15) TAAAACGGGG    1.02
16) GGTTTGAAGC    0.964
17) ATTTTAGCTC    0.984
18) TTATAATGGC    1.02
19) ACCCCGGTCT    1.04
20) GGGTTTGGTT    0.976
21) GGAAACGATT    1.01
22) TGGTATTTAT    1.01
23) TGGTGCAGGG    0.984
24) GCATATTAGG    0.999
25) GTTGAAACAC    1.02
26) GTTTCTAGCT    0.969
27) TTCTTTGTTT    1.01
28) TCAGGGTGC    1.2
29) AGTGATTGAA    0.987
30) GAAGGGGACG    1.01
31) TCTATTTTGT    0.988
32) ATGAAAAAAT    0.974
33) GCGAAAGGCT    1.03
34) TTGAAATTAC    1.03
35) AGGACTTTGG    1.05
36) ATCCGTTTTT    1
37) GGGCCTGGTA    0.973
38) TAGTAGACTG    1.01
39) GGGAACACTT    0.998
40) CGGGATAGTA    0.994
41) TTATAAAAGT    0.962
42) GCTCTATGTA    1.03
43) CAGGGATGTG    1.03
